- target.or.system: KRAS G12V (Homo sapiens (Human), UniProt P01116+P62937, G12V)
- Sequence (P01116-2 other isoform, or with tags, fused parts or gaps G12V): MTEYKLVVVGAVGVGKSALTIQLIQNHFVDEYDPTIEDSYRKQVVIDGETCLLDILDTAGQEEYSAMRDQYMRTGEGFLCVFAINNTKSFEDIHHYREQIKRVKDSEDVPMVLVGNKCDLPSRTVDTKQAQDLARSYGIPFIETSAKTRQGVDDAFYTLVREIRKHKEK
- Sequence (P62937 whole entry): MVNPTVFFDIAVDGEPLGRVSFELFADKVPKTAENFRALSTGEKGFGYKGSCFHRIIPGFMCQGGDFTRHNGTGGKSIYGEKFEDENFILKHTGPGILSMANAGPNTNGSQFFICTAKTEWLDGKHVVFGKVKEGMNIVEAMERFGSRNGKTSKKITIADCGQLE
- protocol.text: Ras-Raf (BRAF RBD) disruption / FRET / MOA assay, KRAS G12V
- Assay type: biochemical
- details: read-out: IC50* KRAS G12V FRET data
pIC50: −log10 of the molar value.
Listed next: entries and their corresponding pIC50.

Which value of pIC50 has been reported for C=CC(=O)N1CC[C@H](C(=O)N(C)[C@H](C(=O)N[C@H]2Cc3cccc(c3)-c3ccc4c(c3)c(c(-c3cnccc3[C@H](C)OC)n4CC)CC(C)(C)COC(=O)[C@@H]3CCCN(N3)C2=O)C(C)C)C1 (single isomer, unassigned) [Example A115] in the records?
5.00 to 6.00

Which value of pIC50 has been reported for C=CC(=O)Nc1cnc(C(=O)N(C)[C@H](C(=O)N[C@H]2Cc3cc(O)cc(c3)-c3ccc4c(c3)c(c(-c3cccnc3[C@H](C)OC)n4CC)CC(C)(C)COC(=O)[C@@H]3CCCN(N3)C2=O)C(C)C)n1C (atropisomer, axis not shown) [Example A255] in the records?
6.00 to 7.00

Which value of pIC50 has been reported for CCn1c(-c2cccnc2[C@H](C)OC)c2c3cc(ccc31)-c1cccc(c1)C[C@H](NC(=O)[C@H](C(C)C)N(C)C(=O)N1CCC13CN(C(=O)C#CC(C)(C)N(C)C)C3)C(=O)N1CCC[C@H](N1)C(=O)OCC(C)(C)C2 [Example A672] in the records?
6.00 to 7.00

Which value of pIC50 has been reported for CCn1c(-c2cncnc2)c2c3cc(ccc31)-c1cccc(c1)C[C@H](NC(=O)[C@H](C(C)C)N(C)C(=O)[C@H]1CCN(C(=O)C#CCN3CCOCC3)C1)C(=O)N1CCC[C@H](N1)C(=O)OCC(C)(C)C2 [Example A185] in the records?
< 5.00

Which value of pIC50 has been reported for C=CC(=O)N1CC[C@@]2(CCN2C(=O)N(C)[C@H](C(=O)N[C@H]2Cc3nc(cs3)-c3ccc4c(c3)c(c(-c3cccnc3[C@H](C)OC)n4CC)CC(C)(C)COC(=O)[C@@H]3CCCN(N3)C2=O)C(C)C)C1 (atropisomer, axis not shown) [Example A661] in the records?
5.00 to 6.00

Which value of pIC50 has been reported for C=CC(=O)N1CC2(CCN(C(=O)N(C)[C@H](C(=O)N[C@H]3Cc4cccc(c4)-c4ccc5c(c4)c(c(-c4cccnc4[C@H](C)OC)n5CC)CC(C)(C)COC(=O)[C@@H]4CCCN(N4)C3=O)C(C)C)CC2)C1 (atropisomer, axis not shown) [Example A680] in the records?
6.00 to 7.00

Which value of pIC50 has been reported for C=CC(=O)N1C[C@@H](C(=O)N(C)[C@H](C(=O)N[C@H]2Cc3cccc(c3)-c3ccc4c(c3)c(c(-c3cccnc3[C@H](C)OC)n4CC)CC(C)(C)COC(=O)[C@@H]3CCCN(N3)C2=O)C(C)C)C(C)(C)C1 (atropisomer, axis not shown) [Example A458] in the records?
5.00 to 6.00

Which value of pIC50 has been reported for C=CC(=O)N1CC[C@H](C(=O)N(C)C(C(=O)N[C@H]2C[C@H]3CN(CCO3)c3ccc4c(c3)c(c(-c3cccnc3[C@H](C)OC)n4CC)CC(C)(C)COC(=O)[C@@H]3CCCN(N3)C2=O)C(C)C)C1 (mixture of isomers) [Example A507] in the records?
5.00 to 6.00

---
Which value of pIC50 has been reported for C=CC(=O)N1C[C@@H](C)N(C(=O)N(C)[C@H](C(=O)N[C@H]2Cc3nc(cs3)-c3ccc4c(c3)c(c(-c3cccnc3[C@H](C)OC)n4CC)CC(C)(C)COC(=O)[C@@H]3CCCN(N3)C2=O)C(C)C)[C@@H](C)C1 (atropisomer, axis not shown) [Example A387] in the records?
6.00 to 7.00

Which value of pIC50 has been reported for CCn1c(-c2cnccc2[C@H](C)OC)c2c3cc(ccc31)-c1cc(O)cc(c1)C[C@H](NC(=O)[C@H](C(C)C)N(C)C(=O)[C@H]1CCN(C(=O)C#CCN(C)C)C1)C(=O)N1CCC[C@H](N1)C(=O)OCC(C)(C)C2 [Example A123] in the records?
6.00 to 7.00

Which value of pIC50 has been reported for C=CC(=O)Nc1cnc(C(=O)N(C)[C@H](C(=O)N[C@H]2Cc3cccc(c3)-c3ccc4c(c3)c(c(-c3cccnc3[C@H](C)OC)n4CC)CC(C)(C)COC(=O)[C@@H]3CCCN(N3)C2=O)C(C)C)n1C (atropisomer, axis not shown) [Example A525] in the records?
5.00 to 6.00

Which value of pIC50 has been reported for C=CC(=O)N1CCOC2(CCN(C(=O)N(C)[C@H](C(=O)N[C@H]3Cc4cc(CF)cc(c4)-c4ccc5c(c4)c(c(-c4cccnc4[C@H](C)OC)n5CC(F)(F)F)CC(C)(C)COC(=O)[C@@H]4CCCN(N4)C3=O)C(C)C)CC2)C1 (atropisomer, axis not shown) [Example A605] in the records?
6.00 to 7.00

Which value of pIC50 has been reported for C=CC(=O)N1CC[C@H](C(=O)N(C)[C@@H](CC(F)(F)F)C(=O)N[C@H]2Cc3cccc(c3)-c3ccc4c(c3)c(c(-c3cccnc3[C@H](C)OC)n4CC)CC(C)(C)COC(=O)[C@@H]3CCCN(N3)C2=O)C1 (atropisomer, axis not shown) [Example A639] in the records?
5.00 to 6.00

Which value of pIC50 has been reported for C=CC(=O)N1CC[C@H](C(=O)N(C)[C@H](C(=O)N[C@H]2Cc3cccc(n3)-c3ccc4c(c3)c(c(-c3cccnc3[C@H](C)OC)n4CC)CC(C)(C)COC(=O)[C@@H]3CCCN(N3)C2=O)C(C)C)C1 (atropisomer, axis not shown) [Example A442] in the records?
< 5.00

Which value of pIC50 has been reported for C=CC(=O)N1CC[C@H](C(=O)N(C)[C@H](C(=O)N[C@H]2Cc3cccc(c3)-c3ccc4c(c3)c(c(-c3cccnc3[C@H](C)OC)n4CC)CC(C)(C)COC(=O)[C@@H]3CCCN(N3)C2=O)C(C)C(F)(F)F)C1 (stereo partly drawn) [Example A641] in the records?
5.00 to 6.00

The measured values listed here are drawn from patent US11566007B2.
